Test target: SFRP-1 (Homo sapiens, UniProt Q8N474)
Sequence (Q8N474 32-314): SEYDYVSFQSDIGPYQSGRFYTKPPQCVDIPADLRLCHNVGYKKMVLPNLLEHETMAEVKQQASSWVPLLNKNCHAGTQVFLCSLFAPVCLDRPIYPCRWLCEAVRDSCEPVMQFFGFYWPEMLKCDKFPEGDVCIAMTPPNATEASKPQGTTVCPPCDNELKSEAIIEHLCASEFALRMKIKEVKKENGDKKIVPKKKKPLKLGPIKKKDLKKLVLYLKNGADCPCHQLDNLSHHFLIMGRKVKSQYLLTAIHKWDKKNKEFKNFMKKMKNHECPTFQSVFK
Assay remarks: Cell-based assay for in vitro measurement of SFRP-1/SARP2 antagonist activity (U2OS cells co-transfected with 16x TCF-tk-Luciferase reporter, Wnt and hSFRP-1);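 further: U2OS cells co-transfected with a TCF-tk luciferase reporter, a Wnt vector, hSFRP-1 or empty vector and CMV-βgal, luciferase luminescence read in cell lysates alongside βgal activity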
Condition label: U2OS, read-out: Fold Induction without SFRP-1, Conc 15 μM; without SFRP-1, single dose
Assay endpoint: fold induction at 15 µM

(P) CCN(CC)CCNS(=O)(=O)c1cc(S(=O)(=O)c2ccc(F)cc2)ccc1C
(Q) Cc1ccc(S(=O)(=O)c2ccc(Br)cc2)cc1S(=O)(=O)NCCc1ccccn1
Compare the recorded fold induction at 15 µM of P and Q ; state which is larger. Lab note: record the label of whichever item you select.
P
